procedure_text: soluble on expression in E. coli; label from the status in PepcDB or PDB records

- record_sequence: "MAHHHHHHMGTLEAQTQGPGSMLTYFHPDQSLHHPRTYFSRGRMRMPQEVPERAARLVAAAFAMGFPVREPDDFGIAPIAAVHDTHYLRFLETVHREWKAMPEDWGDEAMSNIFVREPNALRGVLAQAARHLADGSCPVGEHTWRAAYWSAQSALAAAAAVRDGAPAAYALCRPPGHHARVDAAGGFCYLNNAAIAAQALRARHARVAVLDTDMHHGQGIQEIFYARRDVLYVSIHGDPTNFYPAVAGFDDERGAGEGLGYNVNLPMPHGSSEAAFFERVDDALRELRRFAPDALVLSLGFDVYRDDPQSQVAVTTDGFGRLGHLIGALRLPTVIVQEGGYHIESLEANARSFFGGFGALRG"
  soluble on expression in E. coli: "soluble"
- record_sequence: "GTRKCELQGLWRNELGSNMTISALDVAGTFSGSYQTAVTATNKQILVSPLKGAQQPPGTKGQQPTFGFTVQWQFADSTTVFVGQCFVDRRGKEMLEMAWLLREEVPSRKDTWKATRVGTNVFTRVK"
  soluble on expression in E. coli: "soluble"

* * *

procedure_text: soluble on expression in E. coli; label from the status in PepcDB or PDB records
quantity_name: soluble on expression in E. coli

- record_sequence: "MDSEKIKIFTRNYKGSLIMSKRSPKSVSEKLEIVLLRLEEGKSLSWLTRNQGISKDTLSNWVRKYKEAGVDGLEESRQWKKYSKELKEQAVSDYLNGLGSLKDLTKKYGISDPYVLRSWIKSYTSGKELKATSKGMRRMKQGRKTTFEERIEIVNFTLAHEKDYQGAVEKYGVSYQQIYSWVRKFEKDGSNGLLDRRGKGLTSKPNLTPEEELRLKIKQQEERIKYLEMENGLLKKLEEIKRRNRRLEHHHHHH"
  quantity_name: "soluble on expression in E. coli"
  reported_result: "soluble"
- record_sequence: "KTHEGHCYIIKAHTPIEEFNEQLNADFSDETYDTIGGIVLNKFGYLPQRGEVIIIDDFEFKVLNADSRRIKLLECLDKR"
  quantity_name: "soluble on expression in E. coli"
  reported_result: "soluble"
- record_sequence: "MSLGEKMAIWRTKKPATKQKIVSDLQELGIKKGDTIIFHASMSKAHWICGGPVTVILALQELVGELGNIVMPAQTGQLSDPAKWENPPVPESWWKIIRRETPPFDPLVTPTRGMGVIAETFRTMPDVERSFHPYHSFCAWGKDKKQILANQPLAKSMGDESPLGKMYQLDAKIILFGVDNNNNTSLHLAEERSNAFPLIENQAAFLKNGEIIWEKYQEIDYNSEVFIALGRAYEKEHDFHPTTIIGAPTKIYDMRDLVDFGTKYFQTKNHEGHHHHHH"
  quantity_name: "soluble on expression in E. coli"
  reported_result: "soluble"
- record_sequence: "MSNTHEVRPGQSIELLKALHILTRDGKMNQDSRRKLKQVYHLYQFIEPLLQNARNARGAVTLVDHGAGKSYLGFILYDLFFKDRRDASHIYGIETRAELVQSATELAARLGFGGMSFLNLSVADSIASEQLPPRVDIVTALHACNTATDDAIRFALAKQAQSIVLVPCCQAEVAAVLRKNKARALADPMAELWRHPLHTREFGSQLTNVLRCLQLEAHGYQLSVTELVGWEHSMKNELIIARHQPGRPRREPARRLREMLERIGLQELSERFQVPAQP"
  quantity_name: "soluble on expression in E. coli"
  reported_result: "not soluble"
- record_sequence: "MPDISIILLGNYAPDQVIHARLLFMRMEQVPGGHHLQILQFRFTIPFRQADFCSLDQSDVMCSETHCYYLMNLKVGAFFETAQNILMIRWLFS"
  quantity_name: "soluble on expression in E. coli"
  reported_result: "not soluble"
- record_sequence: "MSLSKVFTIGEILVEIMASKIGQPFDQPGIWNGPYPSGAPAIFIDQVTRLGVPCGIISCVGNDGFGDINIHRLAADGVDIRGISVLPLEATGSAFVTYHNSGDRDFIFNIKNAACGKLSAQHVDENILKDCTHFHIMGSSLFSFHMVDAVKKAVTIVKANGGVISFDPNIRKEMLDIPEMRDALHFVLELTDIYMPSEGEVLLLSPHSTPERAIAGFLEEGVKEVIVKRGNQGASYYSANEQFHVESYPVEEVDPTGAGDCFGGAWIACRQLGFDAHRALQYANACGALAVTRRGPMEGTSRLMEIETFIQRHDMSIREAAQEGHHHHHH"
  quantity_name: "soluble on expression in E. coli"
  reported_result: "soluble"
- record_sequence: "MTHATVTQTVHYHNGETGGQMQADTTNEVNFDRTVTIDTVTGEITHYGDWEADGDDYFKGFDSPTFDGYFADVQHTGEVKGVDPEQGTVDDVTITYYALEHHHHHH"
  quantity_name: "soluble on expression in E. coli"
  reported_result: "soluble"
- record_sequence: "MSQGFKTEADVMRNTAHRVDDTNQEVSAELSRLRSIVDGVRASWEGTAQVSFDNLMQRWDASAKGLQDALQSISDNIRGNATSFENVEADNQSAFSAVGGQGLAL"
  quantity_name: "soluble on expression in E. coli"
  reported_result: "not soluble"
- record_sequence: "MAQNNENALPDITKSITLEAPIQKVWETVSTSEGIAKWFMPNDFQLKEGQEFHLQSPFGPSPCKVLAVQAPTELSFEWDTEGWVVTFQLEDLGEKTGFTLIHSGWKEPNEVIGKANEKSSVVRGKMDGGWTGIVNERLRKAVEE"
  quantity_name: "soluble on expression in E. coli"
  reported_result: "not soluble"
- record_sequence: "MTERLEFTESAFEILGRKWNGLIIQSLLDSDRGSLHFAELSRSVHACSDRVLTVRLKELEDAGIIKRVCCPDNGKLGYRLTEKGSSMRPLMSEISRWAAENI"
  quantity_name: "soluble on expression in E. coli"
  reported_result: "not soluble"

(Q) Quick check: soluble on expression in E. coli of "MIQLKNVGITLSGKGYERFSLENINLEVNGEKVIILGPNGSGKTTLLRAISGLLPYSGNIFINGMEVRKIRNYIRYSTNLPEAYEIGVTVNDIVYLYEELKGLDRDLFLEMLKALKLGEEILRRKLYKLSAGQSVLVRTSLALASQPEIVGLDEPFENVDAARRHVISRYIKEYGKEGILVTHELDMLNLYKEYKAYFLVGNRLQGPISVSELLESSIVEGERNDALLVLDIMDKKVSIVKGDLGMKFGALGSLNRIYGIIGA" ?
(A) soluble

(Q) And the next one, "MGSDKIHHHHHHMELQLQNLALSFKNKPNVIHDISLTMNGGSIVGIVAPNGTGKTTLLRLILNDLKPQAGKVLVDGKSYGSQKQSLALHRQMCLFPVQDDLYPDLSGKAHLEYYAKLWHNRSKSVKQIINVLDMRDYINQPVRTYSMGMKQRLCFGMVMAANTPIMLLDEFMNGLDTINVARMSRILRGLRAEGKLIITVSHLLNNLQGYADLIYFMRDGKIIKTIDQHEQQPLYVQVAEENASRLPRMPWEHYPNGMLVLPIQKLPGEHFNQLLLGLAAHHIPFKLGPLDLDTYFNEFYETDQ" ?
(A) not soluble

(Q) And the next one, "MAHHHHHHMSVPEWARSEHSIEEAKEYLRTGNSVDFFELVSSHILREHPLDVAAFALDLVERISKLGNTLSARDYHPKRVEDNKYLQEKNVCEFLNEWILALLKERPDTDEARMSFHKRYLKSLVDGGGCSQCTSVN" ?
(A) not soluble

(Q) And the next one, "GSMLHGLKQRLEALHHPGELEGSPQNLHQLLGVSIEQSVPQAQTMLVERHLASLTGDEARLLAALSDGSAFALLTLYSGSRFSRGEVLYRYSNAGRAAGIQCNDFIALYLNHLFAQGLVIASDFTESLRTDYELCEGDSDFRKAQAELQIHLPKLSIRRETLRISPLGRQLWTLMTTPADIEEGH" ?
(A) soluble

(Q) And the next one, "MGSDKIHHHHHHMNALQFQKKLLSMQENMMNFALMLTANRDDAQDLMQDTTLKVLDNQEKFVDNINFKGWVLTVMRNIFINNYHKIVRTQTVVDQGVDLYNLDVVNDSGFDSPDGAYQIQEITKAINGLNNELKVPFSMFLSGYKYNEIADKLDVPLGTVKSRIFFARQELQKVLKDFRQG" ?
(A) not soluble

* * *

procedure_text: soluble on expression in E. coli; label from the status in PepcDB or PDB records
quantity_name: soluble on expression in E. coli

// solved cases for soluble on expression in E. coli follow
- record_sequence: "MDWDLITERNIQLFIQLAGLAERPLATNMFWRQGQYETYLNYHNGRIHLCQILKQTFLDEELLFKALANWKPAAFQGIPQRLFLLRDGLAMSCSPPLSSSAELWLRLHHRQIKFLESQCVHG"
  soluble on expression in E. coli: "not soluble"
- record_sequence: "MGSSHHHHHHGGTGENLYFQGGSGMSRVPRPHIHQRISVEDIMKGNRRTLAKAITLAESSNPADSTRLGNLLREIHQMATVRTVPRFALSGSPGSGKSSLLDTLGYYLCEKKNMHVGVLAVDPSSTITHGSILGDKTRMEKLGTHLNSYIRPSPSGGHLGGVTSRAWEALEIFEAARFDVVFVETVGVGQSETQCKDLTDMMILLVPPASGDELQGIKKGVVEVADMVVVTKNDGRRKPLVQQTMSAYARAVMYTEEKQGFEKPVIAVSAEEGTNVPELWEAMLKMWNARLESGQIAHLRRAQSTKHFYNYFEMELLAKARRMTNLEMQNMAHRVWEHEMTPREAGDIMVLRTLREHLAADAAVQHDAGKRA"
  soluble on expression in E. coli: "not soluble"
- record_sequence: "MAQPQLYLPEPFKIAYRKVGQCRRFQQLKKKNGSFKRKGIERWHRAVSTNLLKQNVLVPKEESSSDSDMGFHESQQNQKSNLKTKVKTAFGRMLSYKYRSKPACASQEGSTDHKEALLSNTQSLLPRIVKEFSSPKLFTAKMRKLSENATIQLDVVEAETEEITQGNTLLRARRTTKRLSVTSLPSGLQKGPYSPKKRPHFPALKKKKRGMENILRKSDLTVGKLQMQVDDLIETVTDKSMKLLAQRHAELQQCEFLGDEILQSSKQFQRISKRTMRKYKLKNMTTKGPGDS"
  soluble on expression in E. coli: "soluble"
- record_sequence: "MNTNHYYIRYGCAITLYDNHVSERERLTPKELRFSIEKAVSSFRIQAQEPFSPGSKARFSFVKRKDGNTKNGIFLSPHIVTKDMHAQKVWTKASKFLEIDYLGKDNEREGLLKKDNVSMSNIPISGEYLTFGEKDTGRGSAKISVEEQTYGLITTLTPLKPALQVGKDNFCIIPDIPLNQMVDFIALFDKMQITHLSGEAMLGNIDNKGIPHRPKIFRGNFPNSPKSDRMGAIALLGAIGEFAKHAEFSTLAQKVLDSLKGST"
  soluble on expression in E. coli: "not soluble"
- record_sequence: "MGSDKIHHHHHHVTALPYLIEPLVLPAAVDSPDAGAFREFGELSDALVLETWGNADRSSPQEARLQYWRDNPYTQLRLFFVWLDGRMVARSWIRFGIQENVHTAVLHVNVLAEFSGRGIGRALLRHAEELAAARGCTTLQTFTEHPADFDAGGAGVLKPETGTGGVPAAARGVRFALAAGYRLEQVERFSALELPLAGDTLAALETEALEKSGEQYELLHWTDRCPDGLAQQLAVLMSRMSTDTPVGALNYDEESWDVARVRHVEDTWQKAGLASLVAGARHRATGELAAYSVLQVSDAKPWLANQDDTLVASHHRGHRLGMLVKILNIRRLLAGYPGVERIITFNAAENDHMLAINVALGFHPEGYDGEWQKAL"
  soluble on expression in E. coli: "not soluble"

Kindly consider the entry below.
(Q) Quick check: soluble on expression in E. coli of "MIRVYIALGSNLAMPLQQVSAAREALAHLPRSRLVACSPLYRTKPLGPQDQPDFLNAVVALDTSLPPEQLLDHTQAIERNQGRVRKEQRWGPRTLDLDIMLYGDQVIKTDRLTIPHYGLKAREFMLYPLADIAPDLIFPDGESLSECLKRVDKNGLVLW" ?
(A) soluble
